Target: vascular endothelial growth factor receptor (VEGFR) (human (endogenous in A549), UniProt P17948 27-1338)
Sequence (P17948 27-1338): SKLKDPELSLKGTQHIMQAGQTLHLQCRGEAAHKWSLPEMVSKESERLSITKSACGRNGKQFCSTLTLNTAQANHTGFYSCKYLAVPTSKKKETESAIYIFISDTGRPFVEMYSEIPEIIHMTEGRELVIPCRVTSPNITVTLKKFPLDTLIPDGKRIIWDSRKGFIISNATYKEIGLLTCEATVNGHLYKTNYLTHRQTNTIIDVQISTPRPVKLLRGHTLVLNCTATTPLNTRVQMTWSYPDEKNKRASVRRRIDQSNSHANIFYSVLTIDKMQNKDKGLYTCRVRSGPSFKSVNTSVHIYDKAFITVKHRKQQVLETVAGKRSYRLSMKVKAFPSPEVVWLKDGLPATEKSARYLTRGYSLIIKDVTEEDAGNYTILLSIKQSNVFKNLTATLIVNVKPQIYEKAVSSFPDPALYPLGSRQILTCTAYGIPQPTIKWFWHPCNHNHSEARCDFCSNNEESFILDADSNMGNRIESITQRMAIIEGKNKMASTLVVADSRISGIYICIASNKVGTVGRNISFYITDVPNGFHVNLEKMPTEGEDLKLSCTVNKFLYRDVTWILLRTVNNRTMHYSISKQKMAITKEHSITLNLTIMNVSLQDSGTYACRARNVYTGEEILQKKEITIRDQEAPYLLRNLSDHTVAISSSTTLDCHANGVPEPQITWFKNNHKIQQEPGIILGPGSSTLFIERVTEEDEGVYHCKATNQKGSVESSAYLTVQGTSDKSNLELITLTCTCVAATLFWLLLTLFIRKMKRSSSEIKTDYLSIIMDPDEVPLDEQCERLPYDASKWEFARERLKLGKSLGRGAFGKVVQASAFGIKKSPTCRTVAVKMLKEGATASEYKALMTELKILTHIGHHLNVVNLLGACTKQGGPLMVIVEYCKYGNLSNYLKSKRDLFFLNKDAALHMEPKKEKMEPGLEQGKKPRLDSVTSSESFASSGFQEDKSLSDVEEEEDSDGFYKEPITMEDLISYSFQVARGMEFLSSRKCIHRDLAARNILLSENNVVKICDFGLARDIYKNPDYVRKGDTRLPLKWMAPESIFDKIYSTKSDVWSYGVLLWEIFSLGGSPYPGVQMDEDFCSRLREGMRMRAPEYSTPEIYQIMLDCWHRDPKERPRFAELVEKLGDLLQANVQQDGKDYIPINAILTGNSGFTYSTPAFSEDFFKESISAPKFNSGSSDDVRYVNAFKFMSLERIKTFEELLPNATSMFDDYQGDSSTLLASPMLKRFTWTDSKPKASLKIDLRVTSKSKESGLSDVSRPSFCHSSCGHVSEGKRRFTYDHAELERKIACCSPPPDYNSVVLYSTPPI
Experiment: radioligand binding; competition on A549 cells in 24-well plates, serum-free medium: peptide at 0-6,500 nmol/L for 30 min at 4 °C, then 1.85 kBq 125I-VEGF165 (0.37 μg/L) for 2 h at 4 °C; washed, trypsinised, filtered, γ-counted; IC50 by SPSS13.0
Conditions: one partner purified
Strictly below 300 nM in IC50: criterion met. Otherwise: criterion not met.

Enquiry: Take the binder KKRKRKKSRKRK and say whether its IC50 is less than 300 nM.
Return: criterion not met

Enquiry: # repeat for QFRKRKKSRYKS
Return: criterion not met

Enquiry: # repeat for QKRKRKKSRYKK
Return: criterion not met

Enquiry: # repeat for IVFKRKRKKSRYLS
Return: criterion not met

Enquiry: # repeat for RKRKRKKSRYIVLS (also called NO.17)
Return: criterion met

Enquiry: # repeat for QFRKRKKSRYPS
Return: criterion not met

Enquiry: # repeat for QKRKRKKSRYRK
Return: criterion not met

Enquiry: # repeat for QKRKRKKSRYPLS
Return: criterion not met

Enquiry: # repeat for FFRKRKKSRYKS
Return: criterion met

Enquiry: # repeat for RKRKRKKSRKKH
Return: criterion met

Enquiry: # repeat for KFRKRKKSRYIV
Return: criterion met

Enquiry: # repeat for QKRKRKKSRYKS (also called Control) [VEGF_(125–136)]
Return: criterion not met

Enquiry: # repeat for QHKRKRKKSRIVL
Return: criterion not met

Enquiry: # repeat for QKRKRKKSRYKY
Return: criterion met

Enquiry: # repeat for QFRKRKKSRWKS
Return: criterion met

Enquiry: # repeat for QFRKRKKSRYPK
Return: criterion met

Enquiry: # repeat for QFRKRKKSRYKF
Return: criterion not met

Enquiry: # repeat for QFRKRKKSRYLS
Return: criterion not met

Enquiry: # repeat for QFRKRKKSRYKH
Return: criterion met

Enquiry: # repeat for QKRKRKKSRKKH (also called NO.15)
Return: criterion met

Enquiry: # repeat for QKRKRKKSRYPK
Return: criterion not met

The origin of these recorded values is paper PMC4224745.
